Data provenance is the supplement of paper PMC10567573.

# test.method.notes: protein stability index of a GFP-peptide fusion (GPS, HEK-293T) (PSI 1-6); higher = more stable;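 also: 24-mer peptide tiles fused after GFP, lentivirally expressed, FACS-sorted into six equal bins by GFP/DsRed ratio, decoded by Illumina sequencing, PSI is the read-weighted mean bin number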
# experimental.setup: treatment: MLN4924 1 uM, 8 h; c terminus: a fixed tail appended
Short version: protein stability index at least 4 is 1 (yes), less is 0 (no).

{"residue.codes": "PLPVSADDTPEVLNRALSNLSSRW [CDS2]", "class.assignment": "0 (no)"}
{"residue.codes": "PAAGRELPPDMTVVPGDHLLEPEV [KCNA3]", "class.assignment": "1 (yes)"}
{"residue.codes": "IDKEIELHRILHHKHVVQFYHYFE [PLK2]", "class.assignment": "0 (no)"}
{"residue.codes": "HMVKISGGPHISYPPLHEWVLREG [MAGEA3]", "class.assignment": "0 (no)"}
{"residue.codes": "GAHFPQVPGGAVRVAAAAGSGPSP [PI4K2A]", "class.assignment": "1 (yes)"}
{"residue.codes": "GGATFLLTAKQLIKSIVEASKGCQ [TRIM63]", "class.assignment": "0 (no)"}
{"residue.codes": "TLSASSSAGGSRTPAMSSSSSSRV [TFE3]", "class.assignment": "1 (yes)"}
{"residue.codes": "KARVKPPEGYDVVAVYPNAKVELV [PDLIM4]", "class.assignment": "0 (no)"}
{"residue.codes": "SNNHHLMLEASEWATIEGLVELLQ [ZBED1]", "class.assignment": "0 (no)"}
{"residue.codes": "RLSTSPVRLAARQEDAPMIEPLVP [EPB41L3]", "class.assignment": "1 (yes)"}
{"residue.codes": "LVSWLPRLNAYRGYCSNQLAAKAL [NET1]", "class.assignment": "0 (no)"}
{"residue.codes": "GLRASTSDGILRGNGTGYLPGRGR [RHOBTB2]", "class.assignment": "1 (yes)"}
{"residue.codes": "ASGNATQTESGSEEVSSTVHIETF [C10orf62]", "class.assignment": "1 (yes)"}
{"residue.codes": "DYEAGTLSFYNVTDRSHIYTFTDT [TRIM39]", "class.assignment": "0 (no)"}
{"residue.codes": "CEQCGKCKCGECTAPRTLPSCLAC [SPRY1]", "class.assignment": "1 (yes)"}
{"residue.codes": "GVQREAQRIALRLGNGNDKKEMNK [KMT2E]", "class.assignment": "1 (yes)"}
{"residue.codes": "ESEVYSWGKGARGRLGRRDEDAGL [NEK8]", "class.assignment": "1 (yes)"}
{"residue.codes": "RGNHESRQITQVYGFYDECLRKYG [PPP2CA]", "class.assignment": "0 (no)"}
{"residue.codes": "NDIRIFLEKVLEENAQKKRFNQVL [VPS39]", "class.assignment": "0 (no)"}
{"residue.codes": "PDRVYIHPDSPATGAHWMRQPVSF [TBX6]", "class.assignment": "0 (no)"}
{"residue.codes": "LSSAEENEPSQAETAVEGDPSGVS [C18orf25]", "class.assignment": "1 (yes)"}
{"residue.codes": "RRYLEKSIKMGKRNGLHLPEQVQN [NLN]", "class.assignment": "0 (no)"}
{"residue.codes": "YRQPIPVQELVLEDLQDGDVRMGG [NET1]", "class.assignment": "1 (yes)"}
{"residue.codes": "DTLFERATNSSWVVVFKALVTTHH [SNAP91]", "class.assignment": "0 (no)"}
